Assay: label from the status in PepcDB records

chain	protein production
MRKVLMFLSTALLLAILSLSFTGLDLKAKAASDLYPLPAPIIDVFPDDGLAKDMAKNLNKDSVNDVIDQDDLDALTGLGFETSTITNDSMQLLERAMFNNVTDVSIMEFGAKLTEFPDITTIPHLKTLFFADPPGRLTRNLSLPNYQNYPEMDTITMSGNNLIGSIPDFTGMPALKQLYMSEMLITSDELPNFNNIPLLITLDLSSNQLTTIPDFQNIPNLTFLDLNANLLTNTPDFQNLPKLTDLNLRHNNLTGTMVNYTNLPSLESLNLDYNFLTELPSNVLDTIYVQSQNGELPDQTINQGDTCTIDLPIYFQMEETNMLVSPEVTGEYIGISVIQLPTTVNEEGNTITVDTSALSPGEYKLDVSYNHNYATGGVCSYDWNVTIN	failed
MLNDILTGYGIFILEILTILLLILAVVGLIISYRQHNKSKVGELEIKDLSEEFNEQVRLLRDFNLSEEEQKQRTKAEKKAEKQNAKKRKEKLKKGETLEDEKKACVYVLDFCGDISASETTALREEISAILNVAKSEDEVLLRLESPGGIVHNYGFAASQLSRLKQKGIKLTVAVDKVAASGGYMMACVADKIVSAPFAVIGSIGVVAQIPNVHRLLKKHDVDVDVMTAGEFKRTVTVLGENTEKGKQKFQQELEETHKLFKQFVSQNRPCLDIDKIATGEHWFGQQAIALQLVDEISTSDDLILEKMKEKQVLNVKYRLKKSLIKKFGRQAEESAINIIHRYSTKQSRDFMYLEHHHHHH	failed

---

Test: label from the status in PepcDB records

chain	protein production
MAITVSIELNRDLEIPASYDEVFDLLADVPKSASHFPKVDKLVDLGNNAYRWEMEKVGVDKHAIQSVYACTYHADKEAGKITWSPIKGEGNGVVSGSWTLSAKGDNATAVKFQTSAELTVPLPSLLKLAISPVIKHEFNSLVDTYMANLKKAFLEHHHHHH	not failed
MMVISEKVRKALNDQLNREIYSSYLYLSMATYFDAEGFKGFAHWMKKQAQEELTHAMKFYEYIYERGGRVELEAIEKPPSNWNGIKDAFEAALKHEEFVTQSIYNILELASEEKDHATVSFLKWFVDEQVEEEDQVREILDLLEKANGQMSVIFQLDRYLGQRE	not failed
MEIMKKQNSQINEINKDEIFVVVPAFNEEKMIGETLKNLKKEGYKNIVVVDDGSMDKTSEIAKKEGVIVCRHILNRGLGGALGTGIKCALLYKPKIIITFDADGQHHPKDVEKVVKPVLFEGYDMAIGSRMMDKNELKNMPLVKRIGNFGLNFITYLMGGYFVTDSQSGLRAFSYEAAKKIIGDLKSDRYEVSSEFIILAKKHGLKLKEVPIKTIYTEYSMSRGTNVITGFKILFKLIMQKIF	failed
MTPFTVDILIPIWNRPVETRNCLVTLMETTPSARLILIDNGSDRETERLLEEFSEILGERALFLKTSANQGFVRAVNRSLAQVEAPYAVVMQNTTLVTRGWLEPMVELADSRPDAGIIVPRLELEDGQGRRPKAAPPAGPVTEVSHGSFAASMVRRELVERQGGFDEELDGGPWCLRDYSRRAFRNGFLTLALDGAVVTYAEEVPLGSVARREETVRRSAETCRARWGREDAFCIYFPKDAEPEAVHGKLDVILRGARMGQCFTLILHPGLHKSLMETGHAPLHSNIALAPLPRFFATGEIRKIIGKLASVRGDTVTVAGVDGLSIPGVEGARSFSWLADEIRRRHESLYRPESPLEHHHHHH	not failed
MSEPVSSATVLAGGLMGASVFGLATGTDYGVVFGAFAGSVFYVATATNIGRIRLVAYFITSFIVGVLGAGLIGTKLAAITHYEKPLDALGAVIISAMCIKFLTFLNSQDLNTLFSILSRIRGGGSDGSK	failed
MLDATTRSGGTATATPRATATDLTVATAAAAAGVTAPGAAVAVPTGFTARCTRVLLSPWSRLSLLVALLAAAASSVLLFEPQKLLAHGWPPQLGGAAAAVVFAVAYGLCTVAFVPRPLLNLAAGALFGSQWGTGTALAGTVLGAGVAFGLGRMLGQDALRPLLRGRWLKAVDGQLSRHAFRSMMAARLFPGVPFWAANYCAAVSRMRWVPFLVATALGSIPNTAAYAVAGARASRPTSPAFLIAMGFIAVPALVGAVVAWRKRHHLRGN	failed
MSRVSLRLWDPLVRLFHVSIAGVFVANYFFNEAGDDWHIWLGYYAVAWLAVRVVWGFLGPTSARWSDFWPSPARLRAHVRSLIDRKPVHRLGHSPLGALVMVLMMALIFGMGLTGFLMEEVDALWGADWPLQTHEILANTLCALVVLHMAAAIFESFQVRDNLPLSMLTGKRRPLPEDDYR	failed
MVRDNGPGERLSIPPLSGLRKFRRTLSQKYDNHYCYLWMVSSALEYVRKFGIEKEPSRPFHAYAICPKDVPHRSPSIELSYISEVVWLNRIEDDLCYMNIRSLPVSPFSFSNIEKIGFQR	not failed
AERTIQLPKPDMNRAGLLMKALSERHSTREYASKALSNTDLSDLLWAANGINRSSEGKRTAPSAMNRQDIDIYVVLPQGTYLYDAKGHKLNLISEGDHRSAVAGGQAFVNNAPVSLVLVSDLSKLGDAKSNHVQLMGAMDAGIVSQNISLFCSAARLATVPRASMDLVRLKAALKLKDTQMPMMNHPVGYFK	not failed
IVAQGEDFVVSGALNLSLIRERTGFQAKATEDYQTLAGLVMSLLDRLPSTGDSLSWQGWNLQVVGVEERRVTRVLLQKQPAASAGK	failed
MTRRGVALVARRLPSSPGRVYAVKIDEGEDVHSVLSSLAEAEDLGFAMVTGIGGMAEATVAFYSPPEATYYTVDVKPPEGRVIEVAAMTGNIVKTSQGYSVHIHVALGVSPGKSISGHLVKGVVKPFMEVFVVELVSGQGTPGTSVFDHREGFKASYKRLELEHHHHHH	failed
MKDLFSTDSQRYQQARPTYPPSLLQSLLQYIPERELAWDCGAGSGQLTHMLASYFDQVVGTDISQTQLSHAEYYDNISYQLQPAENTTFPDHCFDLITVAQAIHWFDFEAFYAEVRRTIKPSGILAVVGYGLIHVDDLEINAKVQHLYHQTLNGFWDAERHYVDELYQTIPFPFDEIEMPAFQIEAQWTLQQLLQYLNTWSAVQHYILEKNLDPVQQLLSKGRDLQDQVSIQFPVLLRVGRCS	failed
MAKAAKRFRTPSTTRVLYVRHAHAHGRQTWGGDDNKRPLDKKGRRQAEMLVPMLLPFKPTAIYSAVPDRCQATALPLADELGLDVSVNRLFGDDAWETDPEACKKRFTDVVAQGGVPMIVGQGDIIPEMIKWFSENGTLPIDEKIKAKKGSVWVLSFHDGVFTGADYLEHHHHHH	failed
MAEKQYDFTHVPKRQGNSIKWGVLKEKELPMWIAEMDFKIAPEIMASMEEKLKVAAFGYESVPAEYYKAVADWEEIEHRARPKEDWCVFASGVVPAISAMVRQFTSPGDQILVQEPVYNMFYSVIEGNGRRVISSDLIYENSKYSVNWADLEEKLATPSVRMMVFCNPHNPIGYAWSEEEVKRIAELCAKHQVLLISDEIHGDLVLTDEDITPAFTVDWDAKNWVVSLISPSKTFNLAALHAACAIIPNPDLRARAEESFFLAGIGEPNLLAIPAAIAAYEEGHDWLRELKQVLRDNFAYAREFLAKEVPEVKVLDSNASYLAWVDISALGMNAEDFCKYLREKTGLIISAGNGYRGNGHEFVRINLACPKELVIDGMQRLKQGVLNLNN	not failed

---

Assay: label from the status in PepcDB records
property.name: protein production

chain	result
MKLLIISDGHGDLEKLKKIKPVADGVDALIFGGDFAAFKKIETGAPFLNELLKIHKNIFAVLGNCDEPEFEKKLKDASVSITGEVKNFEGLIFAGSGGGSKFTGTTPYERTDEELVKDLTDAFEKANITAAGNLVLVCHNPPHGAKVDKVAPMVHVGSKGITAFIEKHKPLLVVSGHIHESFAVDKIGETVLVNPGALMEGRYALAEITKNEKGFKVSVELKTLD	failed
DSTGKTKTAYDFSAGGISPDAPLVVLFHGLEGSSRSHYAVELMLAVRNRGWHGAVVHFRSCGGVANTAPVFYHLGDTAEIAFALDTLTARYREIYAVGVSLGGNAPAKYLGEQGKKALPHASAAVSAPVDAEAAGSRFDSGITRLLYTRYFLRTLIPKARSLQGFQTAFAAGCKTLGEFDDRFTAPLHGFADRHDYYRQTSCKPLLKHVAKPLLLLNAANDPFLPPEALPRADEASEAVTLFQPAHGGHAGFVSST	failed
MSTAMYHLRVPQTEEELERYYQFRWEMLRKPLHQPKGSERDGWDALAHHQMVVDEEGNLVAVGRLYINADNEASIRFMAVHPSVQDKGLGTLMAMTLESVARQEGVKRVTCSAREDAVEFFAKLGFVNQGEITTPTTTPIRHFLMIKPVASLDDILHRGDWCGQLQQAWYEHIPLSEKMGVRIQQYTGQKFITTMPETGNQNPHHTVFAGSLFSLATLTGWGLIWLMLRERHLGGTIILADAHIRYSKPISGKPNAVADLGSLSGDLDRLARGKKARVQLQVELLGGETAGAIFEGIYIVLPLEHHHHHH	failed
MFGEQLLKNPLIEFCDSVCRGCGQVMFQNNTVTGLLFFAGIFYNSTTLGVCAVLGTAASTLTAQLLGVDKPLVRAGLFGFNGTLAGIALPFFFNYEPAMLGYVALNGAFTTIIMASLLNFLGKWGVPALTAPFVLATWLLMFGVYKLSLFHPGALIAPALPSVAGLADMGTVTGRTFMEGLFKGVGEVMFQDNIVTGVIFVVAILVNSRISALFAVIGSLVGLCTALIMHSPETPVRLGLYGFNSVLCGIAMGGIFFYLNIRTFLYALGCMVLGAIATGAFSVLLSPIGMPALTWPFIVVTWLFLFAGSMFRNIAQVPTEKAGTPEDNLRSLAIGSR	not failed
MSLSYRIDVLLFNKFETLDVFGPVEIFGNLQDDFELNFISSDGGLVESSQKVRVETSLYTRDENIEKILFVPGGSGTREKVNDDNFINFIGNMVKESKYIISVCTGSALLSKAGILNGKRATTNKRSFKWVTEQNEDVLWVKEARWVKDGNIYTSSGVSAGIDMTLGFIEDLIGKEKALEISRSIEYFWNEDSNYDPFSKIYGEGHHHHHH	not failed
MRNQFDLELHELEQSFLGLGQLVLETASKALLALASKDKEMAELIINKDHAINQGQSAIELTCARLLALQQPQVSDLRFVISIMSSCSDLERMGDHMAGIAKAVLQLKENQLAPDEEQLHQMGKLSLSMLADLLVAFPLHQASKAISIAQKDEQIDQYYYALSKEIIGLMKDQETSIPNGTQYLYIIGHLERFADYIANICERLVYLETGELVDLN	not failed
